# tested-target: Cytochrome P450 2C9 (Homo sapiens) (UniProt P11712)
# Sequence (P11712 whole entry, looked up): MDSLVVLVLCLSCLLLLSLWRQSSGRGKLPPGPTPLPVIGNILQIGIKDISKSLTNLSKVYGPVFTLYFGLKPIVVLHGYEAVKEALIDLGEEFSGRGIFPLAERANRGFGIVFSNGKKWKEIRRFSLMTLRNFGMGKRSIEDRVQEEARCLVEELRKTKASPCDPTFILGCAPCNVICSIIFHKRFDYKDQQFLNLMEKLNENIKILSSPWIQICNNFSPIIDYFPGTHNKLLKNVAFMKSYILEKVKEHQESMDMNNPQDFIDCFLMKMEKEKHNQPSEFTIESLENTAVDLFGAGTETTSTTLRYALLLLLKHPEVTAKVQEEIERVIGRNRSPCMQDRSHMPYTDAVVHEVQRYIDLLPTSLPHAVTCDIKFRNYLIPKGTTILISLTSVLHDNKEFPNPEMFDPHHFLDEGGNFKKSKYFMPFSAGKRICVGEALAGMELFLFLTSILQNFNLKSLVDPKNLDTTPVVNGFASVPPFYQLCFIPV
# assay-details: blockers of cytochrome P450 2C9 activity – biochemical, luminescence, ADME assay, primary screen (AID 777)
# measurement-setup: CYP2C9 Supersomes, luciferin-H conversion, at 5 µM
Out of some 96,000 compounds screened, about 19,000 (20%) were called active.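 How the source made its calls: active means blocking of liver enzyme CYP2C9 beyond about 50% at 5 µM (limit read from the data); inactive means the rest.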 Not all results are given here.
Permitted responses: active, inactive

Which outcome did this test record for the compound COc1cccc(-c2nnc(NC(=O)c3ccc(S(=O)(=O)N(CC(C)C)CC(C)C)cc3)o2)c1 ?
active

Which outcome did this test record for the compound C=C(C)COc1ccc(-c2n[nH]c(C)c2-c2ccccc2OC)c(O)c1 ?
active

Which outcome did this test record for the compound Cc1c(C(=O)N2CC(C)OC(C)C2)sc2nc(-c3ccccc3)cn12 (stereo unspecified) ?
inactive

Which outcome did this test record for the compound C=C(C)COc1ccc(-c2n[nH]c(C)c2-c2ccccc2)c(O)c1 ?
inactive
